Biological target: PIK3CB (Human) (UniProt P42338)
Sequence (P42338 whole entry, looked up): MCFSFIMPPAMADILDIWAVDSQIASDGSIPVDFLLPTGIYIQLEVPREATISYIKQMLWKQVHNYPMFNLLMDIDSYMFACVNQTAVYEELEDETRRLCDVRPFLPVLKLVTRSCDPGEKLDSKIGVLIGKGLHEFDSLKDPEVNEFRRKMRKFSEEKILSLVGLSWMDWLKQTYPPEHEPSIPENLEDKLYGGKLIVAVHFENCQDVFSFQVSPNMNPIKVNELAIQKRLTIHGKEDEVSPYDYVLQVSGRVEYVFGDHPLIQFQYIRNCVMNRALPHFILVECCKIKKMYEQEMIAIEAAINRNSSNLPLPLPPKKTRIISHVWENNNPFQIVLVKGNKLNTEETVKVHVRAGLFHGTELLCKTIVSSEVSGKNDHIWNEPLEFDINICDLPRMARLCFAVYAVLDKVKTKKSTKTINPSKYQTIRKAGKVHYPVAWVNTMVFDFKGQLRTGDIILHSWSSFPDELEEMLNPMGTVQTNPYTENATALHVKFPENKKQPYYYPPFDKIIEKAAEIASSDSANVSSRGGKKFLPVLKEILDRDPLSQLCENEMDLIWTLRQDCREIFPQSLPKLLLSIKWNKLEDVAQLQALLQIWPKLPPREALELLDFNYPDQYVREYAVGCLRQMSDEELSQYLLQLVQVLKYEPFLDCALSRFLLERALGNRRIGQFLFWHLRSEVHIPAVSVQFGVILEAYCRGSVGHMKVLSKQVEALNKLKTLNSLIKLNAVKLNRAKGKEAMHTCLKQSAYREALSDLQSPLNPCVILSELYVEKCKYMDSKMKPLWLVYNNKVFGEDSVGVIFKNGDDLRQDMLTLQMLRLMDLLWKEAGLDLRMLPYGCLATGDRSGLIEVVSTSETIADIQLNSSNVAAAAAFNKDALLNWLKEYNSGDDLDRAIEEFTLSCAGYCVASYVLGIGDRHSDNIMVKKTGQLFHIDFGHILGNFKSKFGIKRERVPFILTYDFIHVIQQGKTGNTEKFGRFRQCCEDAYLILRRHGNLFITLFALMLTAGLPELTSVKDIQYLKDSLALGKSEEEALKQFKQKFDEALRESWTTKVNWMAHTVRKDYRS
observedProperty: IC50 (µM)

Known results for compounds:
[
  {
    "compound": "COc1cc(-c2ccc3nc(NC(C)=O)sc3c2)cnc1Br",
    "assaySystem": "PIK3CB (Human) (UniProt P42338)",
    "IC50 (µM)": 13.3
  },
  {
    "compound": "CC(=O)Nc1nc2ccc(-c3cnc(Cl)c(F)c3)cc2s1",
    "assaySystem": "PIK3CB (Human) (UniProt P42338)",
    "IC50 (µM)": 13.3
  },
  {
    "compound": "CC(=O)Nc1nc2ccc(-c3ccnc(OCCCN4CCOCC4)n3)cc2s1",
    "assaySystem": "PIK3CB (Human) (UniProt P42338)",
    "IC50 (µM)": 11
  },
  {
    "compound": "COc1ccc(COc2nccc(-c3ccc4nc(NC(C)=O)sc4c3)n2)cc1",
    "assaySystem": "PIK3CB (Human) (UniProt P42338)",
    "IC50 (µM)": 13.3
  }
]

P: CC(=O)Nc1nc2ccc(-c3ccnc(N4CCC[C@@H]4c4ccccc4C)n3)cc2s1
Q: CC(=O)Nc1nc2ccc(-c3cnc(Cl)c(OC4CCOC4)c3)cc2s1 (stereo unspecified)
(Q) Given the two records P and Q , choose the one whose IC50 value is lower. Please identify the chosen entry by its label.
(A) P

# credit: the Kinase Knowledgebase extract (Sharma et al. 2016)
